Give measured PBM binding z-score for each item. Keep answers brief.
- System: RARb:RXRa (NR concentration 270 nM, RXRa partner concentration 90 nM)
- Procedure text: PBM binding z-score (relative to random genomic background probes); higher = stronger binding; sequences stand for … in GC…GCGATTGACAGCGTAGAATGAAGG
Numbers only.

Record excerpt, results attached:
sequence_entry=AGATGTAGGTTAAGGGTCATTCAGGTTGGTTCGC study_target="RARb:RXRa (NR concentration 270 nM, RXRa partner concentration 90 nM)" property_measured="PBM binding z-score" quantitative_readout=3.66
sequence_entry=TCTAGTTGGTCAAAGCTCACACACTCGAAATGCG study_target="RARb:RXRa (NR concentration 270 nM, RXRa partner concentration 90 nM)" property_measured="PBM binding z-score" quantitative_readout=1.01
sequence_entry=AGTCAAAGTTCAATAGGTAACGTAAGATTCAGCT study_target="RARb:RXRa (NR concentration 270 nM, RXRa partner concentration 90 nM)" property_measured="PBM binding z-score" quantitative_readout=4.8
sequence_entry=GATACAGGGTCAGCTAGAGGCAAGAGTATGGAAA study_target="RARb:RXRa (NR concentration 270 nM, RXRa partner concentration 90 nM)" property_measured="PBM binding z-score" quantitative_readout=3.97
sequence_entry=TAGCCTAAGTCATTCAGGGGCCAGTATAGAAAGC study_target="RARb:RXRa (NR concentration 270 nM, RXRa partner concentration 90 nM)" property_measured="PBM binding z-score" quantitative_readout=0.478
sequence_entry=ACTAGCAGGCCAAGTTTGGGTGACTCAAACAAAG study_target="RARb:RXRa (NR concentration 270 nM, RXRa partner concentration 90 nM)" property_measured="PBM binding z-score" quantitative_readout=0.418
sequence_entry=TCTCGGAGGACACGAAGGCCAGAGCTTTCCAGAG study_target="RARb:RXRa (NR concentration 270 nM, RXRa partner concentration 90 nM)" property_measured="PBM binding z-score" quantitative_readout=1.82
sequence_entry=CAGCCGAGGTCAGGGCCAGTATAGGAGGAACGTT study_target="RARb:RXRa (NR concentration 270 nM, RXRa partner concentration 90 nM)" property_measured="PBM binding z-score" quantitative_readout=4.81
sequence_entry=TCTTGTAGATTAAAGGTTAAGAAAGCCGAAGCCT study_target="RARb:RXRa (NR concentration 270 nM, RXRa partner concentration 90 nM)" property_measured="PBM binding z-score" quantitative_readout=1.53
sequence_entry=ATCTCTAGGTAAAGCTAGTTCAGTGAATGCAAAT study_target="RARb:RXRa (NR concentration 270 nM, RXRa partner concentration 90 nM)" property_measured="PBM binding z-score" quantitative_readout=0.0194

Please state PBM binding z-score for every sequence in the list that follows.
1. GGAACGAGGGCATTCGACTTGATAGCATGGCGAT
2. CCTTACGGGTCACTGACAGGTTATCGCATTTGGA

Given back:
[1.6, 4.06]

Would you mind listing PBM binding z-score for each of the following sequences?
1. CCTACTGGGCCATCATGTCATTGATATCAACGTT
2. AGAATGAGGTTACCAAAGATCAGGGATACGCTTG
3. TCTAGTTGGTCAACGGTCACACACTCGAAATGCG
4. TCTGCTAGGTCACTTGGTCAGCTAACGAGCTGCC
5. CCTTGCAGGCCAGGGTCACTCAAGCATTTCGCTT

Given back:
1: 0.332; 2: 1.98; 3: 2.31; 4: 3.81; 5: 2.79

// for each sequence below, give its PBM binding z-score
1. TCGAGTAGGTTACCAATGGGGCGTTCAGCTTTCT
2. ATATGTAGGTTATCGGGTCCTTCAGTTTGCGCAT
3. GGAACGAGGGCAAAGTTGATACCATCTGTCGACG
4. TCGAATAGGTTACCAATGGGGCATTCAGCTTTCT
5. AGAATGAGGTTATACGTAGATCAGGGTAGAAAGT
6. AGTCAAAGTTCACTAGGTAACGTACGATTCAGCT

Given back:
[0.773, 0.829, 2.42, 1.57, 1.59, 4.71]

Provide each entry's PBM binding z-score from the list below.
1. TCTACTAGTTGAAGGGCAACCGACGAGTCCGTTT
2. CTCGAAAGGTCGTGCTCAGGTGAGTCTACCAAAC
3. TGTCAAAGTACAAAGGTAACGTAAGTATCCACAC
4. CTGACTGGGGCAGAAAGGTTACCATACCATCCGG
5. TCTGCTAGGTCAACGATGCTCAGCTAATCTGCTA
6. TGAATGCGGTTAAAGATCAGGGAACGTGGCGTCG

Given back:
[1.27, 3.86, 1.67, 2.13, 3.82, 0.315]

Batch request: PBM binding z-score for each of the following sequences.
1. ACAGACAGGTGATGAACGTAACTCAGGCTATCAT
2. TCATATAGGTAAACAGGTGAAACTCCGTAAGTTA
3. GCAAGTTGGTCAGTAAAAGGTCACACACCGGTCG
4. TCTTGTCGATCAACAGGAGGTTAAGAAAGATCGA
5. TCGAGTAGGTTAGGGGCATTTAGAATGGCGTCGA
6. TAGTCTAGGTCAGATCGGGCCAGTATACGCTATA

Given back:
1: -0.0365; 2: 0.76; 3: 4.17; 4: 0.397; 5: 0.962; 6: 3.25

Hi there! I need PBM binding z-score for each item below, if you can.
1. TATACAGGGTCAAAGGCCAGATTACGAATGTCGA
2. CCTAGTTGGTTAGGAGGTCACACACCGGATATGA
3. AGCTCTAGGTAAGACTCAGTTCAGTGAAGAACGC
4. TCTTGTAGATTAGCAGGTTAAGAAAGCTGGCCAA
5. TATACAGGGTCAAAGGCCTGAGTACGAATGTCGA
6. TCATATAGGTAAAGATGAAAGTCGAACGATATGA

Given back:
[4.43, 3.42, -0.0595, 0.197, 4.2, 0.318]

Batch: PBM binding z-score for all items listed.
1. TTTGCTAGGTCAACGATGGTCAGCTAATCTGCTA
2. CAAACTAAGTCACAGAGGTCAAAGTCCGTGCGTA
3. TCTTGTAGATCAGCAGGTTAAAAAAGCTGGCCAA

Given back:
1: 4.13; 2: 4.05; 3: 0.0554

Could you tell me PBM binding z-score for each of these sequences? They are listed below.
1. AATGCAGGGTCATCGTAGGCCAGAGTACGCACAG
2. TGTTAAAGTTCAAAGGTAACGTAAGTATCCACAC
3. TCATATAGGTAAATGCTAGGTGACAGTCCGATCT
4. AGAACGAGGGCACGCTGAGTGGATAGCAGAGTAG
5. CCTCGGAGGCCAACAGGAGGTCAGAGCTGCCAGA
6. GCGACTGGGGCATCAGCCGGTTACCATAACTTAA

Given back:
1. 4.37
2. 4.93
3. 0.403
4. 2.42
5. 2.98
6. 0.332

---

- Test system: RXRa homodimer (NR concentration 180 nM)
- Procedure text: PBM binding z-score (relative to random genomic background probes); higher = stronger binding; sequences stand for … in GC…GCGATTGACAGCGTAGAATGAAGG
Tick 1 if PBM binding z-score is 5 or greater. Tick -1 if PBM binding z-score is less than 5.

Look over these answered cases.
sequence_entry=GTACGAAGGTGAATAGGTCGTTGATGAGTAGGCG assigned_class=-1
sequence_entry=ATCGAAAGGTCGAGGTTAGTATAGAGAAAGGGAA assigned_class=-1
sequence_entry=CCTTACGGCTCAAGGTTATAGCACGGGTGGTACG assigned_class=-1
sequence_entry=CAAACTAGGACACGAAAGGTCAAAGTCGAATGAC assigned_class=1
sequence_entry=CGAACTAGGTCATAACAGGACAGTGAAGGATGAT assigned_class=-1

Asked: Can `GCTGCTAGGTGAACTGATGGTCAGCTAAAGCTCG` be said to have PBM binding z-score at or above 5?
Given back: -1

---

For each of the sequences below, state its PBM binding z-score.
- System: PPARg DBDmut IVT, anti-PPARg (DBD mutation: PPARg1 K132A/R137A, NR concentration 270 nM)
- Procedure text: PBM binding z-score (relative to random genomic background probes); higher = stronger binding; sequences stand for … in GC…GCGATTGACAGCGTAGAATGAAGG
Give bare numbers.

sequence_entry=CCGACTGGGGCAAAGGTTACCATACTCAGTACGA quantitative_readout=-0.153
sequence_entry=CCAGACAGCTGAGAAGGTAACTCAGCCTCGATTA quantitative_readout=-0.867
sequence_entry=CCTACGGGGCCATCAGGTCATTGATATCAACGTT quantitative_readout=-0.657
sequence_entry=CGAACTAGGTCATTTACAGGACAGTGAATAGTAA quantitative_readout=3.57
sequence_entry=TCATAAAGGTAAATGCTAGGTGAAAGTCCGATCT quantitative_readout=0.518
sequence_entry=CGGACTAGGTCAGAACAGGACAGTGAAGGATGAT quantitative_readout=1.13
sequence_entry=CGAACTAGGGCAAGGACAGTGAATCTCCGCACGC quantitative_readout=-0.116
sequence_entry=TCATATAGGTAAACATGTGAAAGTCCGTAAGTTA quantitative_readout=1.79
sequence_entry=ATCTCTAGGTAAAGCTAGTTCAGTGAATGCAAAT quantitative_readout=0.732
sequence_entry=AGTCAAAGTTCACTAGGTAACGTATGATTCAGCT quantitative_readout=1.39

Your task in this section: give PBM binding z-score for each listed record.
1. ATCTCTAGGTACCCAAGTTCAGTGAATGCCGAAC
2. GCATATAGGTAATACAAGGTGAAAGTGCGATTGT
3. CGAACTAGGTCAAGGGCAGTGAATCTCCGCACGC
4. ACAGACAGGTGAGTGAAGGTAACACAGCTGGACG
5. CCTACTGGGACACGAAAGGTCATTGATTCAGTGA
6. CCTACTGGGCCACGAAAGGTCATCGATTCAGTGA
7. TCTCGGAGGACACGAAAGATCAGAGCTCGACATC
8. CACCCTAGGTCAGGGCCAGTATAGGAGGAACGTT

Given back:
1. 0.793
2. 1.01
3. 0.971
4. -0.221
5. -0.131
6. 0.605
7. -1.75
8. -0.553
